ASSAYED_TARGET: Recombinant mouse PD-L1 (Mus musculus, UniProt Q9EP73)
Construct: Fc (Fc chimera); purchased R&D Systems 1019-B7-100
Sequence (Q9EP73 with tags, fused parts or gaps limits assumed): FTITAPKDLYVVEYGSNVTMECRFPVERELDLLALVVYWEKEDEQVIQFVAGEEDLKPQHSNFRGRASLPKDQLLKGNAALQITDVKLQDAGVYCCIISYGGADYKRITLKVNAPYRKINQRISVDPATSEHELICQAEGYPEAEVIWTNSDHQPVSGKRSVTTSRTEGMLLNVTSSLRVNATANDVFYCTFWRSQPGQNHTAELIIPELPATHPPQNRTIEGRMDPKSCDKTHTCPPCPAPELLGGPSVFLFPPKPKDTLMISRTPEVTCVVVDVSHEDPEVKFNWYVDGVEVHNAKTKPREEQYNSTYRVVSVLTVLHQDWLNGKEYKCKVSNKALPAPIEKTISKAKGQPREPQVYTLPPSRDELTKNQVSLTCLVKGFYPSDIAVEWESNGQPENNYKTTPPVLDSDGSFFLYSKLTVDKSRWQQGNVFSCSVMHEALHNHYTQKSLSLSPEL
ASSAY_DETAILS: Rescue of mouse splenocyte proliferation in the presence of recombinant PD-L1 (CFSE proliferation assay)
Type: cell-based
ASSAY_CONTEXT: 100 nM compound; anti-CD3/CD28 stimulated C57 BL6 mouse splenocytes with PD-L1; 72 h; stimulated splenocyte proliferation = 100%; read-out: Percent rescue of splenocyte proliferation (@100 nM compound concentration)
Assign yes (1) to entries whose activation at 0.1 µM meets or exceeds 30%; assign no (0) to the rest.

Some entries whose results are on file:
COMPOUND	CLASS_LABEL
N[C@@H](Cc1ccc(O)cc1)c1nnc([C@@H]2CCCN2C(=O)N[C@@H](Cc2ccc(O)cc2)C(=O)O)o1 [Compound 8]	yes (1)
CCC(C)[C@H](NC(=O)N[C@@H](CCC(=O)O)C(=O)O)c1nnc([C@@H](N)CCC(=O)O)o1 (stereo partly shown) [Compound 2]	yes (1)
NC(=O)C[C@H](NC(=O)N[C@@H](Cc1ccccc1)C(=O)O)c1nnc([C@@H](N)CO)o1 [Compound 15]	no (0)
NCCCC[C@H](NC(=O)N[C@@H](CC(N)=O)c1nnc([C@@H](N)CO)o1)C(=O)O [Compound 13]	no (0)
CC(O)[C@H](NC(=O)N[C@@H](CC(N)=O)c1nnc([C@@H](N)CC(=O)O)o1)C(=O)O (stereo partly shown) [Compound 16]	yes (1)

Has CCC(C)[C@H](N)c1nnc([C@@H](NC(=O)N[C@@H](CCC(=O)O)C(=O)O)C(C)CC)o1 (stereo partly shown) [Compound 12] a recorded activation at 0.1 µM greater than or equal to 30%?
yes (1)
